Numbers sourced from PubChem BioAssay AID1159580.

Assay: chemical genetic growth profiling, strain panel (AID 1159580);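 further: tested at 20 µM; growth read once vehicle control cultures reached saturation at 30 °C; 1 = growth at the plate median or of vehicle wells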
Details: S. cerevisiae deletion strains, growth OD, locus YGR078C, strain PAC10
Among all 5,500 compounds or so, about 2,000 (36%) were called active. Another 18% or so got no clear call; they are omitted. No stated cut-off is given here; in the data, active means normalized growth mostly below about 0.91 (no sharp cut-off); inconclusive means no clear call, values can overlap the other calls; inactive means mostly above about 0.92. The list shows a part of the results.
Tick one outcome: active, inactive

Enquiry: // outcome(item) with item = NCC(=O)CCC(=O)O
Return: inactive

Enquiry: Call for entry CC(=O)O[C@H]1C[C@@H](O)C(C)(C)C2C[C@@H](OC(C)=O)[C@]3(C)C(CC[C@@]4(C)[C@H](c5ccoc5)OC(=O)C5OC543)[C@]21C (stereo not given in full) :
Return: inactive

Enquiry: Could you check what this test reported for CSc1ccc2c(c1)C(N1CCN(C)CC1)Cc1ccccc1S2 (stereo not given) ?
Return: active

Enquiry: Which outcome was assigned to CCOC(=O)C1C(C=C(C)C)C1(C)C (stereo not given) in this test?
Return: inactive

Enquiry: Call for entry CC1=CCc2c(cc3oc(C)cc(=O)c3c2O)OC1 :
Return: active

Enquiry: Just curious, what result did Cc1cc(=O)c2c(o1)-c1c(cc(O)c(O)c1C(=O)O)OC2 get here?
Return: inactive

Enquiry: Record request — test call for CC1(C)O[C@@H]2CC3C4C[C@H](F)C5=CC(=O)C=C[C@]5(C)[C@@]4(F)[C@@H](O)C[C@]3(C)[C@]2(C(=O)CO)O1 (stereo not given in full)
Return: inactive

Enquiry: Please indicate how the test categorized CNCCc1c[nH]c2ccc(O)cc12 .
Return: inactive

Enquiry: Hi, do you know how CCCCCCCCCCc1ccc(-c2ccccc2)cc1 came out in this test?
Return: inactive

Enquiry: Hi team, can someone confirm the assay call for CCN1CN=C(SCc2ccc(C)cc2)NC1 ?
Return: inactive

###

Assay: chemical genetic growth profiling, strain panel (AID 1159580)
Settings: S. cerevisiae deletion strains, growth OD, locus YCL029C, strain bik1
About 2,000 (36%) of roughly 5,500 compounds were called active. Inconclusive results (about 18%) are left out. Rule as the data show it: active = normalized growth mostly below about 0.91 (no sharp cut-off); inconclusive = no clear call, values can overlap the other calls; inactive = mostly above about 0.92. The list shows a part of the results.
Choose one outcome from this list and give only that: active, inactive

Enquiry: Assay result, entry CC1=CCc2c(cc3oc(C)cc(=O)c3c2O)OC1 — outcome?
Return: inactive

Enquiry: What call does the record list for OC1C(O)C(O)C(O)C(O)C1O (stereo not given) ?
Return: inactive

Enquiry: Please let me know the test result on file for CC(C)=CCc1c2c(c(O)c3c(=O)c(O)c(-c4ccccc4)oc13)C=CC(C)(C)O2 .
Return: active

Enquiry: What is the recorded call for this compound in the test? O=c1c2ccccc2oc2ccc(O)cc12
Return: active

Enquiry: Please share the test call associated with CC(=O)Oc1c(-c2ccccc2)oc2c(CC=C(C)C)c3c(c(OC(C)=O)c2c1=O)C=CC(C)(C)O3 .
Return: inactive

###

Assay: chemical genetic growth profiling, strain panel (AID 1159580);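 further: tested at 20 µM; growth read once vehicle control cultures reached saturation at 30 °C; 1 = growth at the plate median or of vehicle wells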
Settings: S. cerevisiae deletion strains, growth OD, locus YMR263W, strain SAP30, stronger effect = lower value
The campaign covered roughly 5,500 compounds. About 2,000 (36%) were called active. Not shown: some 18% with an inconclusive outcome. The list shows a part of the results.
measured-property: normalized growth
Number only, no unit.

Enquiry: Give a short answer stating reported normalized growth for OC1C(O)C(O)C(O)C(O)C1O (stereo not given) .
Return: 0.99

Enquiry: Using the record for O=C1NC(c2ccccc2Cl)Nc2ccccc21 (stereo not given) , state its measured normalized growth.
Return: 1.01

Enquiry: Please give measured normalized growth of the following entry: ClC(Cl)=C(c1ccc(Cl)cc1)c1ccc(Cl)cc1
Return: 0.96

Enquiry: Give the value of normalized growth reported for the following: CC(=O)OC1CC2C(C)(C)CCCC2(C)C2CCC3(C)C(c4ccoc4)OC(=O)C4OC43C12C (stereo not given)
Return: 1.01

Enquiry: Fill in normalized growth for record CSc1nc(N)nc(C(C)(C)C)n1
Return: 0.991

###

Experiment: chemical genetic growth profiling, strain panel (AID 1159580);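 further: tested at 20 µM; growth read once vehicle control cultures reached saturation at 30 °C; 1 = growth at the plate median or of vehicle wells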
Settings: S. cerevisiae deletion strains, growth OD, locus YBR231C, strain swc5, stronger effect = lower value
The campaign covered roughly 5,500 compounds. About 2,000 (36%) were called active. Roughly 18% stayed inconclusive and do not appear here. The list shows a part of the results.
measured-property: normalized growth

Enquiry: Give the measured normalized growth for O=c1cc(-c2ccc(O)cc2)oc2ccc(O)cc12
Return: 0.979 (inactive)

Enquiry: Output measured normalized growth for this item: ClC(Cl)=C(c1ccc(Cl)cc1)c1ccc(Cl)cc1
Return: 0.976 (inactive)

Enquiry: Let me know recorded normalized growth for CC(=O)O[C@H]1C[C@H](O[C@H]2[C@@H](O)C[C@H](O[C@H]3[C@@H](O)C[C@H](O[C@H]4CC[C@@]5(C)C(CCC6C5C[C@@H](O)[C@]5(C)[C@@H](C7=CC(=O)OC7)CC[C@]65O)C4)O[C@@H]3C)O[C@@H]2C)O[C@H](C)[C@H]1O[C@@H]1O[C@H](CO)[C@@H](O)[C@H](O)[C@H]1O (some centres undefined) , thanks.
Return: 0.987 (inactive)

Enquiry: Quick one: give measured normalized growth for CC(C)(O)[C@@H]1CC[C@](C)([C@H]2[C@@H](O)C[C@@]3(C)C4C[C@H](O[C@@H]5O[C@H](CO)[C@@H](O)[C@H](O)[C@H]5O)C5C(C)(C)[C@@H](O[C@@H]6OC[C@@H](O)[C@H](O)[C@H]6O)CC[C@@]56C[C@@]46CC[C@]23C)O1 (some centres undefined)
Return: 1 (inactive)

###

Assay: chemical genetic growth profiling, strain panel (AID 1159580);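 further: tested at 20 µM; growth read once vehicle control cultures reached saturation at 30 °C; 1 = growth at the plate median or of vehicle wells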
Details: S. cerevisiae deletion strains, growth OD, locus YIR030C, strain dcg1, stronger effect = lower value
In all, about 5,500 compounds went through this assay and about 2,000 (36%) were called active. Roughly 18% stayed inconclusive and do not appear here. The list shows a part of the results.
measured-property: normalized growth
Number, no unit, nothing else.

Enquiry: Read the entry COc1ccc(-c2cc(=O)c3ccccc3o2)cc1OC and write its reported normalized growth.
Return: 1.02

Enquiry: # return recorded normalized growth for input CN(C)CCC=C1c2ccccc2C=Cc2ccccc21
Return: 0.988

Enquiry: Hello, please tell me recorded normalized growth for this one: C#CCOS(=O)OC1CCCCC1Oc1ccc(C(C)(C)C)cc1 (configuration not stated)
Return: 0.984

Enquiry: For the molecule NCC(=O)CCC(=O)O , give its reported normalized growth.
Return: 0.994

Enquiry: Report normalized growth for COc1cc([C@@H]2c3cc4c(cc3[C@H](O)[C@H]3COC(=O)[C@@H]23)OCO4)cc(OC)c1OC
Return: 0.995

Enquiry: Look up and report measured normalized growth for this entry: COC(=O)C1=C(C)NC(C)=C(C(=O)OCCN(C)Cc2ccccc2)C1c1cccc([N+](=O)[O-])c1 (configuration not stated)
Return: 0.979

Enquiry: Using known records, supply normalized growth for CCC/C=C/C=C/[C@@H]1C[C@@H](O)[C@@H](O)C(=O)[C@H]1C=O
Return: 0.975

Enquiry: Quick one: give measured normalized growth for CN(C)CCC=C1c2ccccc2CCc2ccccc21
Return: 0.992

Enquiry: Hello, please tell me recorded normalized growth for this one: COC(=O)C[C@H]1C(C)(C)C(=O)[C@@H]2CC3=C4CC(OC)O[C@@H](c5ccoc5)[C@]4(C)CCC3[C@@]1(C)C2=O (some centres not stated)
Return: 1

Enquiry: Look up normalized growth of CC(N)Cc1ccc(O)cc1 (configuration not stated) and report it.
Return: 1.02

Enquiry: Look up and state reported normalized growth for CC(=O)O[C@H]1C[C@H](O[C@H]2[C@@H](O)C[C@H](O[C@H]3[C@@H](O)C[C@H](O[C@H]4CC[C@@]5(C)C(CCC6C5C[C@@H](O)[C@]5(C)[C@@H](C7=CC(=O)OC7)CC[C@]65O)C4)O[C@@H]3C)O[C@@H]2C)O[C@H](C)[C@H]1O[C@@H]1O[C@H](CO)[C@@H](O)[C@H](O)[C@H]1O (some centres not stated)
Return: 0.988

Enquiry: Supply recorded normalized growth for CNCCC=C1c2ccccc2CCc2ccccc21 here.
Return: 1.02

Enquiry: Fill in normalized growth for record CN(C)CC/C=C1/c2ccccc2COc2ccccc21
Return: 1.01

Enquiry: Identify normalized growth associated with the molecule CN(N=O)C(=O)N[C@@H]1[C@@H](O)[C@H](O)[C@@H](CO)O[C@@H]1O
Return: 1

Enquiry: Annotate the molecule O=C1c2c(O)ccc(O)c2C(=O)c2c(NCCNCCO)ccc(NCCNCCO)c21 with its measured normalized growth.
Return: 1.02

Enquiry: Report normalized growth, nothing else, for this molecule: CCC1C2CC3C4N(C)c5ccccc5C45CC(C2C5OC(C)=O)N3C1OC(C)=O (configuration not stated)
Return: 1.01

Enquiry: Answer with the recorded normalized growth of COc1cc([C@@H]2c3cc4c(cc3[C@H](OC(C)=O)[C@H]3COC(=O)[C@H]23)OCO4)cc(OC)c1OC only.
Return: 0.974
